Target: human adrenergic-α2B receptor (Homo sapiens)
Construct: expressed in transfected cells; membrane preparation
Sequence (P18089 1-450): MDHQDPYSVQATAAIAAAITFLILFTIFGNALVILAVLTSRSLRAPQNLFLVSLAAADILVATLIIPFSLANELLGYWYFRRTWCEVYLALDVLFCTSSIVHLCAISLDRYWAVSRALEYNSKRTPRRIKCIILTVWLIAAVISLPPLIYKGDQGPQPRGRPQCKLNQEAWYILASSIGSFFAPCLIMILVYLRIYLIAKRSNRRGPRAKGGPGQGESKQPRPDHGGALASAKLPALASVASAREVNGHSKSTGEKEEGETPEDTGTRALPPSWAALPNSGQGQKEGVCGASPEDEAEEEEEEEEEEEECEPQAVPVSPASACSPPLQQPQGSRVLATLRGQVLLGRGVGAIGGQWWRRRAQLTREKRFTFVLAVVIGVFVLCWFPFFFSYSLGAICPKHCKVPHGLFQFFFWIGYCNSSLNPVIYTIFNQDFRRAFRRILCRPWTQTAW
Assay: Radioligand binding experiment for α2B-adrenoceptor ([3H]-raulwolscine competition, CHO cell membranes)
Conditions: [3H]raulwolscine 1 nM, membranes of CHO cells transfected with human α2B receptor; read-out: pIC50 α2B (converted)
measuredMetric: IC50 (nM)
The response must be a number in nM with no trailing unit.

Q. May I ask what IC50 has been recorded for `C/C(=C\c1ccccc1)CN1CCC(Cn2ncn(-c3ccc(NCCN(C)C)cc3)c2=O)CC1` ?
A. 7.94

Q. Next molecule: `O=c1n(CCN2CCCCC2)cnn1CCNCCOc1ccccc1`
A. 1580

Q. Record: `CN(Cc1ccccc1)Cc1ccc(-n2cnn(CCNCCOc3ccccc3)c2=O)cc1`
A. 126

Q. What about C/C(=C\c1ccccc1)CN1CCC(n2cnn(CCNCCOc3ccccc3)c2=O)CC1 [compound 29] ?
A. 126

Q. Cool, now `O=c1n(-c2ccc(CN3CCC(N4CCCC4)CC3)cc2)cnn1CC1CCN(CCOc2ccccc2)CC1`
A. 7.94

Q. Then `O=c1n(-c2ccc(NCCN3CCCC3)cc2)cnn1CCNCCOc1ccccc1` ?
A. 39.8

Q. `CN(CCNc1ccc(-n2cnn(CC3CCN(CCOc4ccccc4)CC3)c2=O)cc1)Cc1ccccc1` ?
A. 6.31

Q. Same again, this time with `CN1CCCN(c2ccc(-n3cnn(CCNCCOc4ccccc4)c3=O)cc2)CC1`
A. 100
